Experimental target: Cytochrome P450 2D6 (Homo sapiens, UniProt P10635)
Sequence (P10635 whole entry): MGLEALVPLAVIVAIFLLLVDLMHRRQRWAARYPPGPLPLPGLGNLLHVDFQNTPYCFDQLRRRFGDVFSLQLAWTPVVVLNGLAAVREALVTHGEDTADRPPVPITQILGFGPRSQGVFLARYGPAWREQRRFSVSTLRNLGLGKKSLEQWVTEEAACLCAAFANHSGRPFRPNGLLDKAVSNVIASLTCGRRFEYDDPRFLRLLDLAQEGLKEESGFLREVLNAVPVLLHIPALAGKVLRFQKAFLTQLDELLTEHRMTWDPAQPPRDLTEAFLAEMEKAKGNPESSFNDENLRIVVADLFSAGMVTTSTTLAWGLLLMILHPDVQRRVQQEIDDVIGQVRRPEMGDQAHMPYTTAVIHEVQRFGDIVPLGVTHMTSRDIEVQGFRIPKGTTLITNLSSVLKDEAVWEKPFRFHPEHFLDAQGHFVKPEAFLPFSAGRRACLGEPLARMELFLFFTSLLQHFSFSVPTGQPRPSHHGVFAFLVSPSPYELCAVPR
Property name: pIC50
pIC50 (log units): -log10 of the concentration in mol/L.

* CN1CC[C@H](c2ccc(Cl)cc2)[C@@H](COc2cc(F)c(S(=O)(=O)Nc3ncns3)cc2F)C1 | 6.57

Now look at this one.
Ask: Short answer please: pIC50, Cytochrome P450 2D6 (Homo sapiens, UniProt P10635), entry O=S(=O)(Nc1ncns1)c1cc(F)c(OC[C@H]2CNCC[C@@H]2c2ccc(Cl)cc2)cc1F
Result: 6.59

---

Experimental target: CYP2D6 (Homo sapiens)
Sequence (P10635 whole entry): as above
Experiment notes: Inhibition of CYP2D6 (unknown origin) using bufuralol substrate at 10 uM
Type: ADME
Applied conditions: probe bufuralol
Property name: inhibition at 10 µM (%)
Record the value in %, omitting the unit from your answer.

# example entries with known answers
- CC(C)(C)OC(=O)N1CC[C@@H](c2ccc(Cl)cc2)[C@H](COc2cc(F)c(S(=O)(=O)Nc3ncns3)cc2F)C1 (relative stereo): 78
- O=S(=O)(Nc1ncns1)c1cc(F)c(OC[C@@H]2CNCC[C@H]2c2ccccc2)cc1F (relative stereo): 82

Alright, here's another compound for you.
Ask: May I ask what inhibition at 10 µM has been recorded for O=S(=O)(Nc1ncns1)c1cc(F)c(OC[C@@H]2CN(CCF)CC[C@H]2c2ccc(Cl)cc2)cc1F ?
Result: 90
